- assayText: Apical-to-basolateral permeability across Caco-2 monolayers
- Format: in vitro ADME
- assayConditions: human
propertyMeasured: Papp at 2 h, 0.1 mM (×10⁻⁶ cm/s)

| compound | propertyMeasured | endpointResult |
| --- | --- | --- |
| O=c1[nH]c(=O)n([C@H]2C[C@H](O)[C@@H](CO)O2)cc1F [floxuridine, 5-fluoro-2′-deoxyuridine, reference compound] | Papp at 2 h, 0.1 mM | 0.69 |

* * *

- Test system: AsPC-1 cell homogenates
- assayText: Enzymatic stability in AsPC-1 cell homogenate
- Assay type: in vitro ADME, human
- assayConditions: 500 μg/mL protein, 37 °C, mean ± SD, n = 3
# t1/2 cell homogenates AsPC-1 per entry
propertyMeasured: t1/2 cell homogenates AsPC-1 (min)

| compound | systemName | propertyMeasured | unitName | endpointResult |
| --- | --- | --- | --- | --- |
| CC[C@H](C)[C@H](N)C(=O)NCC(=O)OC[C@H]1O[C@@H](n2cc(F)c(=O)[nH]c2=O)C[C@@H]1O | AsPC-1 cell homogenates | t1/2 cell homogenates AsPC-1 | min | 25.1 |
| NCC(=O)OC[C@H]1O[C@@H](n2cc(F)c(=O)[nH]c2=O)C[C@@H]1O | AsPC-1 cell homogenates | t1/2 cell homogenates AsPC-1 | min | 27.6 |
| CC(C)C[C@H](N)C(=O)OC[C@H]1O[C@@H](n2cc(F)c(=O)[nH]c2=O)C[C@@H]1O | AsPC-1 cell homogenates | t1/2 cell homogenates AsPC-1 | min | 2.0 |
| CC(C)C[C@H](N)C(=O)NCC(=O)OC[C@H]1O[C@@H](n2cc(F)c(=O)[nH]c2=O)C[C@@H]1O | AsPC-1 cell homogenates | t1/2 cell homogenates AsPC-1 | min | 3.6 |
| CC[C@H](C)[C@H](N)C(=O)OC[C@H]1O[C@@H](n2cc(F)c(=O)[nH]c2=O)C[C@@H]1O | AsPC-1 cell homogenates | t1/2 cell homogenates AsPC-1 | min | 198.0 |
| N[C@@H](Cc1ccccc1)C(=O)OC[C@H]1O[C@@H](n2cc(F)c(=O)[nH]c2=O)C[C@@H]1O | AsPC-1 cell homogenates | t1/2 cell homogenates AsPC-1 | min | 11.8 |
| N[C@@H](Cc1ccccc1)C(=O)NCC(=O)OC[C@H]1O[C@@H](n2cc(F)c(=O)[nH]c2=O)C[C@@H]1O | AsPC-1 cell homogenates | t1/2 cell homogenates AsPC-1 | min | 10.2 |
| N[C@@H](Cc1ccccc1)C(=O)N[C@@H](Cc1ccc(O)cc1)C(=O)OC[C@H]1O[C@@H](n2cc(F)c(=O)[nH]c2=O)C[C@@H]1O | AsPC-1 cell homogenates | t1/2 cell homogenates AsPC-1 | min | 59.7 |
| CC(C)[C@H](N)C(=O)OC[C@H]1O[C@@H](n2cc(F)c(=O)[nH]c2=O)C[C@@H]1O | AsPC-1 cell homogenates | t1/2 cell homogenates AsPC-1 | min | 18.7 |

* * *

- systemName: PEPT1 (Homo sapiens, UniProt P46059)
- Sequence (P46059 1-708): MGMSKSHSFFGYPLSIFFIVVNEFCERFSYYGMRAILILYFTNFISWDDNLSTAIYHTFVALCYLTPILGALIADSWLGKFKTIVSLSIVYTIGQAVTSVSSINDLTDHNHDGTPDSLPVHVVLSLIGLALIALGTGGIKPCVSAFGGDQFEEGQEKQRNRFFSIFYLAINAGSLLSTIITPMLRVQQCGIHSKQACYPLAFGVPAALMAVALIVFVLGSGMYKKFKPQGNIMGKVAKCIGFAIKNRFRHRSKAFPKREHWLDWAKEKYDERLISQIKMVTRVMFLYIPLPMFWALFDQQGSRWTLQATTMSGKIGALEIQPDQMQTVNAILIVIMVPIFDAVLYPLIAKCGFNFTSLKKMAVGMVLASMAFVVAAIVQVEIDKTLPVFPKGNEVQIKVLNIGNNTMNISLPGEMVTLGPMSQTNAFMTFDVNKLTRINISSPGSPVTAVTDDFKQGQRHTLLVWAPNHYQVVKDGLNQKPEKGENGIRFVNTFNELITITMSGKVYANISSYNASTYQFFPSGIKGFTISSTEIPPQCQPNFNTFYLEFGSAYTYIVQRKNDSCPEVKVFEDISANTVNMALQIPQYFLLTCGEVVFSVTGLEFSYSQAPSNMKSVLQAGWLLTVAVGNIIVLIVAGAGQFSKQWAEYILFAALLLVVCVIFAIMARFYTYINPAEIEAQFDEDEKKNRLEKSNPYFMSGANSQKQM
- assayText: [3H]Gly-Sar uptake inhibition in Capan-2 cells
- Format: cell-based
- assayConditions: read-out: IC50 [3H]Gly-Sar uptake inhibition Capan-2; Capan-2 cells, 10 μmol/L Gly-Sar, 30 min; mean ± SD, n = 3
Response field label takes y when IC50 is strictly below 1 mM and n in all other cases.

| compound | systemName | assignedLabel |
| --- | --- | --- |
| CC(C)C[C@H](N)C(=O)NCC(=O)OC[C@H]1O[C@@H](n2cc(F)c(=O)[nH]c2=O)C[C@@H]1O [5′-L-leucyl-L-glycyl-floxuridine, 5′-L-Leucyl-L-glycyl-floxuridine] | PEPT1 (Homo sapiens, UniProt P46059) | y |
| N[C@@H](Cc1ccccc1)C(=O)OC[C@H]1O[C@@H](n2cc(F)c(=O)[nH]c2=O)C[C@@H]1O [5′-L-phenylalanyl-floxuridine] | PEPT1 (Homo sapiens, UniProt P46059) | n |
| CC(C)C[C@H](N)C(=O)OC[C@H]1O[C@@H](n2cc(F)c(=O)[nH]c2=O)C[C@@H]1O [5′-L-leucyl-floxuridine] | PEPT1 (Homo sapiens, UniProt P46059) | n |
| CC[C@H](C)[C@H](N)C(=O)NCC(=O)OC[C@H]1O[C@@H](n2cc(F)c(=O)[nH]c2=O)C[C@@H]1O [5′-L-isoleucyl-L-glycyl-floxuridine, 5′-L-Isoleucyl-L-glycyl-floxuridine] | PEPT1 (Homo sapiens, UniProt P46059) | y |
| CC(C)[C@H](N)C(=O)OC[C@H]1O[C@@H](n2cc(F)c(=O)[nH]c2=O)C[C@@H]1O [5′-L-valyl-floxuridine] | PEPT1 (Homo sapiens, UniProt P46059) | n |
| CC[C@H](C)[C@H](N)C(=O)OC[C@H]1O[C@@H](n2cc(F)c(=O)[nH]c2=O)C[C@@H]1O [5′-L-isoleucyl-floxuridine] | PEPT1 (Homo sapiens, UniProt P46059) | n |
| NCC(=O)OC[C@H]1O[C@@H](n2cc(F)c(=O)[nH]c2=O)C[C@@H]1O [5′-L-glycyl-floxuridine] | PEPT1 (Homo sapiens, UniProt P46059) | n |
| N[C@@H](Cc1ccccc1)C(=O)N[C@@H](Cc1ccc(O)cc1)C(=O)OC[C@H]1O[C@@H](n2cc(F)c(=O)[nH]c2=O)C[C@@H]1O [5′-L-phenylalanyl-L-tyrosyl-floxuridine, 5′-L-Phenylalanyl-L-tyrosyl-floxuridine] | PEPT1 (Homo sapiens, UniProt P46059) | n |
| N[C@@H](Cc1ccccc1)C(=O)NCC(=O)OC[C@H]1O[C@@H](n2cc(F)c(=O)[nH]c2=O)C[C@@H]1O [5′-L-phenylalanyl-L-glycyl-floxuridine, 5′-L-Phenylalanyl-L-glycyl-floxuridine] | PEPT1 (Homo sapiens, UniProt P46059) | y |

Every entry's value here was drawn from paper PMC2659690.
